meta.source: ChEMBL document CHEMBL4257443

- System Under Test: CYP2C9 (Homo sapiens, UniProt P11712)
- Sequence (P11712 whole entry): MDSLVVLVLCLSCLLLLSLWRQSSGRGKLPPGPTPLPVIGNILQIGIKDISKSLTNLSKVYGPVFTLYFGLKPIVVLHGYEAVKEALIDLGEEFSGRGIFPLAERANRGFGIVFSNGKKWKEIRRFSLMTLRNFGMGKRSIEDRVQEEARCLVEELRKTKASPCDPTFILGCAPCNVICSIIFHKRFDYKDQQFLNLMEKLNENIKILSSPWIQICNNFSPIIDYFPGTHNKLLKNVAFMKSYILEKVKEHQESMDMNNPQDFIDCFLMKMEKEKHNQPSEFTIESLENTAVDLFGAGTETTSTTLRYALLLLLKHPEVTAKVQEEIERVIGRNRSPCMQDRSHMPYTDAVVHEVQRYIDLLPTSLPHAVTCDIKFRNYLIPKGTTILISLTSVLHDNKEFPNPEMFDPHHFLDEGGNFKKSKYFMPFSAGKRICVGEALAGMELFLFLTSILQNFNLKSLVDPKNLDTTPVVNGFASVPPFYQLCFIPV
- Test Summary: Inhibition of CYP2C9 (unknown origin) at 3 uM by high throughput assay relative to control
- Assay type: ADME
Record form. Attribute: inhibition at 3 µM. Fill in for each entry.
Answer in %, number only, no unit symbol.

Quick one: inhibition at 3 µM for O=C(NCc1ccc(OC(F)(F)F)c(Cl)c1)c1ccc(S(=O)(=O)Nc2ncns2)c(F)c1 ?
88

Quick one: inhibition at 3 µM for O=C(NCc1ccc(OC(F)(F)F)c(Cl)c1)c1ccc(S(=O)(=O)Nc2nccs2)c(F)c1 ?
66

Quick one: inhibition at 3 µM for O=C(Nc1ccc(S(=O)(=O)Nc2nccs2)cc1)C(c1ccccc1)c1ccccc1 ?
79

Quick one: inhibition at 3 µM for O=S(=O)(Nc1ncns1)c1ccc(OCc2ccc(OC(F)(F)F)c(Cl)c2)cc1 ?
85

* * *

- System Under Test: Sodium channel protein type 9 subunit alpha (Rattus norvegicus, UniProt O08562)
- Test Summary: Inhibition of rat NaV1.7
Measured Metric: IC50 (nM)
Answer in nM, number only, no unit symbol.

Quick one: IC50 for O=C(Nc1ccc(S(=O)(=O)Nc2nccs2)cc1)C(c1ccccc1)c1ccccc1 ?
68

* * *

- Test Summary: Protein binding in dog plasma
- Assay type: ADME, cell-free, Canis lupus familiaris
- Condition Details: read-out: PPB
Measured Metric: fraction unbound

Quick one: fraction unbound for O=C(NCc1ccc(OC(F)(F)F)c(Cl)c1)c1ccc(S(=O)(=O)Nc2nccs2)c(F)c1 ?
< 0.002

* * *

- System Under Test: Sodium channel protein type 5 subunit alpha (Homo sapiens, UniProt Q14524)
- Sequence (Q14524 whole entry): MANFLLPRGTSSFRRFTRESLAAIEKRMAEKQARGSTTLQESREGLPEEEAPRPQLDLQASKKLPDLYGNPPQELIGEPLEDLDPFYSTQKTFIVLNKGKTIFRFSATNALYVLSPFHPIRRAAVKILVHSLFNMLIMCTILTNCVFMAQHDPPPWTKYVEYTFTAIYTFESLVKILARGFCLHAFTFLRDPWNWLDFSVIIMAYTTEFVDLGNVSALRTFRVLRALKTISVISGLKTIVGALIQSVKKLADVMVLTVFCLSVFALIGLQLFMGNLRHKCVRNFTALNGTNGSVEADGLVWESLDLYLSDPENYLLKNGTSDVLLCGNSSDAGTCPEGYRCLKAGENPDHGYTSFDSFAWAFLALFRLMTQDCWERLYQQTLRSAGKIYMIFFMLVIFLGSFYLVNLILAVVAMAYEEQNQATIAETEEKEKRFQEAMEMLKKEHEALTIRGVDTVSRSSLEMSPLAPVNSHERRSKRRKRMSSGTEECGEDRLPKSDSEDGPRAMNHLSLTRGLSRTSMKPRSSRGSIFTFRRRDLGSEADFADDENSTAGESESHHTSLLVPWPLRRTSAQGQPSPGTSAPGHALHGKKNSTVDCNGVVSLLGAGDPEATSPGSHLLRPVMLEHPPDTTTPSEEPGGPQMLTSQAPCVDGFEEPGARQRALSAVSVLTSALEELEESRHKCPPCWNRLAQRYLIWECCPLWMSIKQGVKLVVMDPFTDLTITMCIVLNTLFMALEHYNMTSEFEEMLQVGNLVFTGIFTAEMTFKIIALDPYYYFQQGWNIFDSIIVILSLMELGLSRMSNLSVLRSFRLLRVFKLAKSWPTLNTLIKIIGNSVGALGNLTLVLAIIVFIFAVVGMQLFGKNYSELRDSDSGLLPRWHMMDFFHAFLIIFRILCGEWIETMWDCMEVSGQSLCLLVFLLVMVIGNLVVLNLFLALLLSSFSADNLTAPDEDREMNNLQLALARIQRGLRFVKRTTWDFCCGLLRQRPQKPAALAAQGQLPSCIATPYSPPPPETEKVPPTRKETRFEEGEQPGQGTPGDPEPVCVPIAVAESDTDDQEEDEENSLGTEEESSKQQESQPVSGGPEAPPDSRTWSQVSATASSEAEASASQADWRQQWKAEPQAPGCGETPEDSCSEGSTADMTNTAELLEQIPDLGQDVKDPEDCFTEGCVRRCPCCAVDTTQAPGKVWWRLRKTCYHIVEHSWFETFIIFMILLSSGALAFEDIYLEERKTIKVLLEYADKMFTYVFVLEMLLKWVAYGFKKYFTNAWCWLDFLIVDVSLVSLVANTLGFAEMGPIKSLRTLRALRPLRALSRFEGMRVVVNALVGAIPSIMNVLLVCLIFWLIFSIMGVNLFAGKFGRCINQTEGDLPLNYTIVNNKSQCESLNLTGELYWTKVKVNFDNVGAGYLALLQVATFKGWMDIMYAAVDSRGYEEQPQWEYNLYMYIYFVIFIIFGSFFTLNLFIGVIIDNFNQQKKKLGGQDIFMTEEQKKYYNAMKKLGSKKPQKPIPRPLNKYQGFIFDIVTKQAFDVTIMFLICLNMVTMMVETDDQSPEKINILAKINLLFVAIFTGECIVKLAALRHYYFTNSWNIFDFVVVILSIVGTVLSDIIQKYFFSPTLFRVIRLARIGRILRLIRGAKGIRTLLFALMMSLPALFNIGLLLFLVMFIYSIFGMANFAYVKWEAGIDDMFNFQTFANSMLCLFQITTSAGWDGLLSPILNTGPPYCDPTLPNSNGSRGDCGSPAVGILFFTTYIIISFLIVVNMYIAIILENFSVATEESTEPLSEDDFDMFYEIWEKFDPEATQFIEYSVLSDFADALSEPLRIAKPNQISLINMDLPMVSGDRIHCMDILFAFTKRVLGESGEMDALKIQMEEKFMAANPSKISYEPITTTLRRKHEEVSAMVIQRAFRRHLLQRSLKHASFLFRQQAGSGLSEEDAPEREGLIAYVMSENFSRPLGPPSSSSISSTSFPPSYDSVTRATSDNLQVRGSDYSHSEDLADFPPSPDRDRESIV
- Test Summary: Inhibition of human NaV1.5
Measured Metric: pIC50
Scale for pIC50: -log10 of concentration given in mol/L; no unit attached.

Quick one: pIC50 for O=C(Nc1ccc(S(=O)(=O)Nc2nccs2)cc1)C(c1ccccc1)c1ccccc1 ?
5.04

Quick one: pIC50 for O=C(NCc1ccc(OC(F)(F)F)c(Cl)c1)c1ccc(S(=O)(=O)Nc2ncns2)c(F)c1 ?
5.31

Quick one: pIC50 for O=C(NCc1ccc(OC(F)(F)F)c(Cl)c1)c1ccc(S(=O)(=O)Nc2nccs2)c(F)c1 ?
4.80

* * *

Record form. Attribute: IC50. Fill in for each entry.
- System Under Test: Sodium channel protein type 2 subunit alpha (Homo sapiens)
- Test Summary: Inhibition of human NaV1.2
Answer with the value and then the unit.

Lab request: please report IC50 under test system Sodium channel protein type 2 subunit alpha (Homo sapiens) for O=S(=O)(Nc1ncns1)c1ccc(OCc2ccc(OC(F)(F)F)c(Cl)c2)cc1
2.76 µM

Lab request: please report IC50 under test system Sodium channel protein type 2 subunit alpha (Homo sapiens) for O=C(NCc1ccc(OC(F)(F)F)c(Cl)c1)c1ccc(S(=O)(=O)Nc2ncns2)c(F)c1
0.92 µM

Lab request: please report IC50 under test system Sodium channel protein type 2 subunit alpha (Homo sapiens) for O=C(Nc1ccc(S(=O)(=O)Nc2nccs2)cc1)C(c1ccccc1)c1ccccc1
0.393 µM

Lab request: please report IC50 under test system Sodium channel protein type 2 subunit alpha (Homo sapiens) for O=C(NCc1ccc(OC(F)(F)F)c(Cl)c1)c1ccc(S(=O)(=O)Nc2nccs2)c(F)c1
0.429 µM

* * *

- Test Summary: Aqueous solubility of compound
- Type: physicochemical
- Condition Details: buffer
Record form. Attribute: solubility. Fill in for each entry.

Quick one: solubility for O=C(NCc1ccc(OC(F)(F)F)c(Cl)c1)c1ccc(S(=O)(=O)Nc2nccs2)c(F)c1 ?
12 µg/mL

Quick one: solubility for O=C(Nc1ccc(S(=O)(=O)Nc2nccs2)cc1)C(c1ccccc1)c1ccccc1 ?
268 µg/mL

Quick one: solubility for O=S(=O)(Nc1ncns1)c1ccc(OCc2ccc(OC(F)(F)F)c(Cl)c2)cc1 ?
99 µM

Quick one: solubility for O=C(NCc1ccc(OC(F)(F)F)c(Cl)c1)c1ccc(S(=O)(=O)Nc2ncns2)c(F)c1 ?
369 µg/mL

* * *

- System Under Test: Sodium channel protein type 8 subunit alpha (Homo sapiens)
- Test Summary: Inhibition of human NaV1.6
Measured Metric: pIC50
Scale for pIC50: -log10 of concentration given in mol/L; no unit attached.

Lab request: please report pIC50 under test system Sodium channel protein type 8 subunit alpha (Homo sapiens) for O=C(NCc1ccc(OC(F)(F)F)c(Cl)c1)c1ccc(S(=O)(=O)Nc2ncns2)c(F)c1
5.68

Lab request: please report pIC50 under test system Sodium channel protein type 8 subunit alpha (Homo sapiens) for O=C(Nc1ccc(S(=O)(=O)Nc2nccs2)cc1)C(c1ccccc1)c1ccccc1
4.99

Lab request: please report pIC50 under test system Sodium channel protein type 8 subunit alpha (Homo sapiens) for O=C(NCc1ccc(OC(F)(F)F)c(Cl)c1)c1ccc(S(=O)(=O)Nc2nccs2)c(F)c1
5.98

* * *

- Test Summary: Lipophilicity, log D of the compound
- Assay type: physicochemical
- Condition Details: octanol/water
Record form. Attribute: logD. Fill in for each entry.
Please state the value as a number alone, without comment.

Quick one: logD for O=C(NCc1ccc(OC(F)(F)F)c(Cl)c1)c1ccc(S(=O)(=O)Nc2nccs2)c(F)c1 ?
3.3

Quick one: logD for O=C(NCc1ccc(OC(F)(F)F)c(Cl)c1)c1ccc(S(=O)(=O)Nc2cccnn2)c(F)c1 ?
2.4

Quick one: logD for O=C(NCc1ccc(OC(F)(F)F)c(Cl)c1)c1ccc(S(=O)(=O)Nc2nccs2)cc1 ?
3.1

Quick one: logD for O=C(c1ccc(OC(F)(F)F)c(Cl)c1)N1CC(OCc2ccc(S(=O)(=O)Nc3ncns3)cc2)C1 ?
1.3

Quick one: logD for O=C(NCc1ccc(OC(F)(F)F)cc1)c1ccc(S(=O)(=O)Nc2nccs2)cc1 ?
2.6

Quick one: logD for O=C(NCc1ccc(OC(F)(F)F)c(Cl)c1)c1ccc(S(=O)(=O)Nc2ncccn2)c(F)c1 ?
1.8

Quick one: logD for CN(Cc1ccc(OC(F)(F)F)c(Cl)c1)C(=O)c1ccc(S(=O)(=O)Nc2ncns2)c(F)c1 ?
1.3

Quick one: logD for O=S(=O)(Nc1ncns1)c1ccc(Oc2ccc(OC(F)(F)F)c(Cl)c2)cc1 ?
2.5

Quick one: logD for O=C(COc1ccc(F)cc1)N1CCc2cc(S(=O)(=O)Nc3ncns3)ccc21 ?
0.4

* * *

- Test Summary: Clearance in rat
- Assay type: ADME, organism-based
- Condition Details: in vivo
Measured Metric: clearance (mL/min/kg)
Answer in mL/min/kg, number only, no unit symbol.

Quick one: clearance for O=C(NCc1ccc(OC(F)(F)F)c(Cl)c1)c1ccc(S(=O)(=O)Nc2nccs2)c(F)c1 ?
3.9

Quick one: clearance for O=S(=O)(Nc1ncns1)c1ccc(OCc2ccc(OC(F)(F)F)c(Cl)c2)cc1 ?
2

Quick one: clearance for O=C(NCc1ccc(OC(F)(F)F)c(Cl)c1)c1ccc(S(=O)(=O)Nc2ncns2)c(F)c1 ?
4.4

* * *

- Test Summary: Clearance in cynomolgus monkey liver microsomes
- Assay type: ADME, Macaca fascicularis, microsome
- Condition Details: read-out: CLH
Measured Metric: microsomal CLint

Quick one: microsomal CLint for O=S(=O)(Nc1ncns1)c1ccc(OCc2ccc(OC(F)(F)F)c(Cl)c2)cc1 ?
< 32 µL/min/mg

* * *

Quick note: these are IC50 numbers for system: Voltage-gated inwardly rectifying potassium channel KCNH2 (Homo sapiens, UniProt Q12809)
Sequence (Q12809 whole entry): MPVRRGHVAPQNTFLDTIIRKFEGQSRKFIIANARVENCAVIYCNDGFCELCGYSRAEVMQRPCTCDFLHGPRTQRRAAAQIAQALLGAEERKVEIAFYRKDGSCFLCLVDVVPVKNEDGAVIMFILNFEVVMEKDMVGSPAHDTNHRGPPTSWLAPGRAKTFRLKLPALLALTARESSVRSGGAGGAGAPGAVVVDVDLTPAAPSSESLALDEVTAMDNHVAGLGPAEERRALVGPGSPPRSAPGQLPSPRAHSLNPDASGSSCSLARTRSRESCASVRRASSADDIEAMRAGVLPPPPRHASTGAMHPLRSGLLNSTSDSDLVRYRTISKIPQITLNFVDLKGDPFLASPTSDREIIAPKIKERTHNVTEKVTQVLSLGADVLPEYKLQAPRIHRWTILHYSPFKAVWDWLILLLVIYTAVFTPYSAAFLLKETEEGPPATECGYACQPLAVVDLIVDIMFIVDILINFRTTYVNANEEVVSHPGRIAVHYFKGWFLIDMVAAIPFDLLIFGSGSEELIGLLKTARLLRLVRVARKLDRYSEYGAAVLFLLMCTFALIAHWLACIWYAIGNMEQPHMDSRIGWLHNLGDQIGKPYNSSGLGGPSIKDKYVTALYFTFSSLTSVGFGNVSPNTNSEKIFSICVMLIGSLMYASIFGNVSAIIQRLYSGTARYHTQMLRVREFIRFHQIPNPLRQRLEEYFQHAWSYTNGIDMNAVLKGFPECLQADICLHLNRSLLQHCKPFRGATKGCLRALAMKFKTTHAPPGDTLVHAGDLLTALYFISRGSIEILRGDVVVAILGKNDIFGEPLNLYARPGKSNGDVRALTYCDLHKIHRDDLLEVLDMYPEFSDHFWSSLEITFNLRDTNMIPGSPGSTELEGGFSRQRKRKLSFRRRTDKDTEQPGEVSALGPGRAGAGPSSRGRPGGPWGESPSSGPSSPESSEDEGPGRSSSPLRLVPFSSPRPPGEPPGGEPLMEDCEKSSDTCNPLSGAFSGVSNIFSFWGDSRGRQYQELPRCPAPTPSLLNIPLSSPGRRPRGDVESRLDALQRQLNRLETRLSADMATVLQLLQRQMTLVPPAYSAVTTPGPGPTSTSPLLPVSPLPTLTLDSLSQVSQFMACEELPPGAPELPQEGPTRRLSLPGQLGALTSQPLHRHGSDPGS

Quick one: IC50 for O=C(NCc1ccc(OC(F)(F)F)c(Cl)c1)c1ccc(S(=O)(=O)Nc2ncns2)c(F)c1 ?
> 100 µM

Quick one: IC50 for O=C(NCc1ccc(OC(F)(F)F)c(Cl)c1)c1ccc(S(=O)(=O)Nc2nccs2)c(F)c1 ?
17.7 µM

Quick one: IC50 for O=S(=O)(Nc1ncns1)c1ccc(OCc2ccc(OC(F)(F)F)c(Cl)c2)cc1 ?
> 10 µM

* * *

- Test Summary: Clearance in rat liver microsomes
- Type: ADME, microsome
- Condition Details: read-out: CLH
Measured Metric: microsomal CLint

Quick one: microsomal CLint for O=S(=O)(Nc1ncns1)c1ccc(OCc2ccc(OC(F)(F)F)c(Cl)c2)cc1 ?
< 14 µL/min/mg

* * *

- Tested on: MDR1
- Test Summary: Efflux ratio of permeability across basolateral to apical over apical to basolateral side in RRCK cells expressing MDR1
- Format: ADME, cell-based, Canis lupus familiaris, MDCKII-LE
- Condition Details: dog, MDCK-MDR1
Measured Metric: efflux ratio
Please state the value as a number alone, without comment.

Lab request: please report efflux ratio under test system MDR1 for O=C(NCc1ccc(OC(F)(F)F)c(Cl)c1)c1ccc(S(=O)(=O)Nc2ncns2)c(F)c1
1

Lab request: please report efflux ratio under test system MDR1 for O=C(NCc1ccc(OC(F)(F)F)c(Cl)c1)c1ccc(S(=O)(=O)Nc2nccs2)c(F)c1
3.5

Lab request: please report efflux ratio under test system MDR1 for O=C(Nc1ccc(S(=O)(=O)Nc2nccs2)cc1)C(c1ccccc1)c1ccccc1
30

Lab request: please report efflux ratio under test system MDR1 for O=S(=O)(Nc1ncns1)c1ccc(OCc2ccc(OC(F)(F)F)c(Cl)c2)cc1
1

* * *

- Test Summary: Clearance in human liver microsomes
- Assay type: ADME, microsome
- Condition Details: read-out: CLH
Measured Metric: microsomal CLint (µL/min/mg)
Answer in µL/min/mg, number only, no unit symbol.

Quick one: microsomal CLint for O=S(=O)(Nc1ncns1)c1ccc(OCc2ccc(OC(F)(F)F)c(Cl)c2)cc1 ?
15

Quick one: microsomal CLint for O=C(Nc1ccc(S(=O)(=O)Nc2nccs2)cc1)C(c1ccccc1)c1ccccc1 ?
15
